// provenance: paper PMC9763333

assay: Drug loading into DC Bead LUMI; type: physicochemical; details: DC Bead LUMI; mean ± SD
Counter-ions that a name gives are not always drawn.
Quantity measured: equivalent of drug loaded to sulfonated bead (mM drug/ml beads)

Please review the following examples before continuing.
{"Compound": "COc1cccc2c1C(=O)c1c(O)c3c(c(O)c1C2=O)C[C@@](O)(C(=O)CO)C[C@@H]3O[C@H]1C[C@H](N)[C@H](O)[C@H](C)O1 [Dox, doxorubicin hydrochloride]", "Value reported": 0.35}
{"Compound": "CCNCc1nc2c(N)nc3ccccc3c2n1CC(C)(C)O", "Value reported": 0.21}

1. COc1nc(OCc2cccc(-c3ccccc3)c2C)ccc1CNCCNC(C)=O
2. CCCCNc1nc(N)c2[nH]c(=O)n(Cc3ccc(OCCN(C)C)nc3)c2n1
Input line: Given 1 and 2 , report the one with the higher recorded equivalent of drug loaded to sulfonated bead. Record your answer as the label of the chosen record.
Output line: 1
(1: 0.35 mM drug/ml beads, 2: 0.16 mM drug/ml beads)
